Measured hERG current change (%, negative = inhibition) at 1uM of individual entries
Experimental System: human ether-à-go-go-related gene (hERG) potassium channel (human, UniProt Q12809)
Sequence (Q12809 whole entry, looked up): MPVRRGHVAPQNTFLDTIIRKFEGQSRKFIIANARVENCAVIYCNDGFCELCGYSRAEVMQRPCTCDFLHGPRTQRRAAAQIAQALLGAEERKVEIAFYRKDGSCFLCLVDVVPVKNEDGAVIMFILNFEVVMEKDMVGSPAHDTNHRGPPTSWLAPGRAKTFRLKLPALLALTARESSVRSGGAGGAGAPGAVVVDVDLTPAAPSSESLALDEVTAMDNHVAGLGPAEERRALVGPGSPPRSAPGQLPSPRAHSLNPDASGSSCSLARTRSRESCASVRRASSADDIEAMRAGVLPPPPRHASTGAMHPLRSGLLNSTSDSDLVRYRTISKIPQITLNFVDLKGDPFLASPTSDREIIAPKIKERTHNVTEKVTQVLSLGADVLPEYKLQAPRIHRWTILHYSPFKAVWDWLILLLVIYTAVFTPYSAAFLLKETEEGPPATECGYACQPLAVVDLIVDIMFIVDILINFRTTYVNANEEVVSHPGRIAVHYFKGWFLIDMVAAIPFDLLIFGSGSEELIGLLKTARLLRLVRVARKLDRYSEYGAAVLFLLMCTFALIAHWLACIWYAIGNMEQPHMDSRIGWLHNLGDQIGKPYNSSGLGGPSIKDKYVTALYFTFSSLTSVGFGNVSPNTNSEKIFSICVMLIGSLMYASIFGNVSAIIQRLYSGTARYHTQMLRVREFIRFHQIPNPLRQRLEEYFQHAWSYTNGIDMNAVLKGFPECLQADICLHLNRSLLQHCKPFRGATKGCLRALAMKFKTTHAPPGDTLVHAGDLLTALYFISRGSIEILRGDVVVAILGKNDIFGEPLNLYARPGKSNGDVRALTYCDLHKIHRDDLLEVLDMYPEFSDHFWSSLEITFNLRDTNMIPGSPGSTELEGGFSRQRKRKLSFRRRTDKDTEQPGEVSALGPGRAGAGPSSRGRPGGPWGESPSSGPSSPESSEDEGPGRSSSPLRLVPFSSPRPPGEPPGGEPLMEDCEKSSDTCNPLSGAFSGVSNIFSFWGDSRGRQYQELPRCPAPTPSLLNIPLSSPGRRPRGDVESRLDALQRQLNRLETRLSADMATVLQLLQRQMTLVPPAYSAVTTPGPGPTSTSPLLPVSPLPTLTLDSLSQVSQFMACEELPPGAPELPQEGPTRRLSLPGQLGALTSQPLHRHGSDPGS
Measurement Protocol: primary screen, population patch clamp on CHO cells stably expressing hERG; higher = less effect of the substance
About 2,200 (0.71%) of roughly 310,000 compounds showed an effect of 50% or more. Effects have a minus sign here. The sample holds strong results, similar compounds and a random draw of the others, so the mix is not that of the screen.
Hey, just the number and the unit after it is fine.

// solved cases for hERG current change (%, negative = inhibition) at 1uM follow
[[record]]
molecule = "N=c1nc(N)nc2n1NC(c1ccc(F)cc1)=CS2"
result = "-3.69%"

[[record]]
molecule = "CC1(c2nnc(-c3cccc(Cl)c3)o2)CC(c2ccccc2F)=NO1 (centres unmarked)"
result = "8.2%"

[[record]]
molecule = "CN1CCN(c2ccc(CNS(=O)(=O)Cc3cccc(C(F)(F)F)c3)cc2)CC1"
result = "7.74%"

[[record]]
molecule = "Cc1ccc(-n2c(SCC(=O)NCc3cccs3)nnc2-c2ccoc2C)cc1"
result = "-16.5%"

[[record]]
molecule = "COc1cccc(NC(=O)Nc2cccc(C(=O)O)c2)c1"
result = "16.4%"

[[record]]
molecule = "Cc1occc1-c1nnc(SCC(=O)NCc2cccs2)n1-c1ccc(F)cc1"
result = "-14%"


Input `O=C(Nc1ccc(Cl)cc1)c1cc(S(=O)(=O)N2CCOCC2)cs1` . Output hERG current change (%, negative = inhibition) at 1uM: -7.43%

The measured hERG current change (%, negative = inhibition) at 1uM associated with `CCOC(=O)N1CCC(NC(=O)c2cc(C(=O)Nc3ccc(OC)c(OC)c3)ccc2CO)CC1` reads 4.41%

The measured hERG current change (%, negative = inhibition) at 1uM associated with `CCOC(=O)CNC(=O)CSc1nnnn1-c1ccc(C)c(C)c1` reads 0.993%

---

Experimental System: human ether-à-go-go-related gene (hERG) potassium channel (human)
Measurement Protocol: primary screen, population patch clamp on CHO cells stably expressing hERG; higher = less effect of the substance
Screen size: about 310,000 compounds; about 2,200 (0.71%) showed an effect of 50% or more. The effect is printed as a negative number. The full list was thinned out, with strong results kept by preference.
Parameter Measured: hERG current change (%, negative = inhibition) at 1uM
// return the numeric value with its unit appended

The cases that follow already have their hERG current change (%, negative = inhibition) at 1uM on record.
[[record]]
compound = "COCCCn1c(=N)c(C(=O)NCC2CCCO2)cc2c(=O)n3ccccc3nc21 (centres unmarked)"
experimental_system = "human ether-à-go-go-related gene (hERG) potassium channel (human)"
result = "-44.3%"

[[record]]
compound = "CCOC(=O)[C@@H]1[C@H]2COc3cc(OC)ccc3[C@@H]2N2C(=O)N(c3ccc(Br)cc3)C(=O)[C@@]12C"
experimental_system = "human ether-à-go-go-related gene (hERG) potassium channel (human)"
result = "5.83%"

[[record]]
compound = "CC(C)OCCCNC(=O)c1c(N)n(CC2CCCO2)c2nc3ccccc3nc12 (centres unmarked)"
experimental_system = "human ether-à-go-go-related gene (hERG) potassium channel (human)"
result = "6.34%"

[[record]]
compound = "COCCCn1c(=N)c(C(=O)NCC2CCCO2)cc2c(=O)n3cccc(C)c3nc21 (centres unmarked)"
experimental_system = "human ether-à-go-go-related gene (hERG) potassium channel (human)"
result = "-74.8%"

[[record]]
compound = "COc1ccc(CNC(=O)C2CSC(=O)C2)cc1 (centres unmarked)"
experimental_system = "human ether-à-go-go-related gene (hERG) potassium channel (human)"
result = "8.88%"


Record CCC1CCCCN1CC(=O)c1c(C)[nH]c2ccc(OC)cc12 (centres unmarked) , field hERG current change (%, negative = inhibition) at 1uM: -5.25%
